Tested on: WI38
Assay: Chemosensitivity test (modified MTT test EZ4U)
Settings: Homo sapiens, WI-38, 96 h, read-out: IC50-Werte
quantityKind: IC50 (µg/mL)
Answers are plain numbers, in µg/mL.

Batch request: IC50 per item, same order as input.
1. O=C(/C=C/c1ccc(CO)o1)c1ccc(Cl)cc1 [HMF-2]
2. COc1cc(/C=C/C(=O)c2ccccc2O)ccc1O [Q20]
3. COc1cc(C2CC(=O)c3ccccc3O2)ccc1OCC=C(C)C (stereo not shown) [Q25]
4. O=C(/C=C/c1ccc(CO)o1)c1ccccc1O [HMF-3]

Output line:
1: 4.9; 2: 8.3; 3: 8.2; 4: 20
